Cited source for all entries: PubChem BioAssay

Property: NADPH fluorescence slope; scope: individual compounds
# experimental-system: Voltage-gated potassium channel subunit beta-2 (Rattus norvegicus) (UniProt P62483)
# Sequence (P62483 whole entry, looked up): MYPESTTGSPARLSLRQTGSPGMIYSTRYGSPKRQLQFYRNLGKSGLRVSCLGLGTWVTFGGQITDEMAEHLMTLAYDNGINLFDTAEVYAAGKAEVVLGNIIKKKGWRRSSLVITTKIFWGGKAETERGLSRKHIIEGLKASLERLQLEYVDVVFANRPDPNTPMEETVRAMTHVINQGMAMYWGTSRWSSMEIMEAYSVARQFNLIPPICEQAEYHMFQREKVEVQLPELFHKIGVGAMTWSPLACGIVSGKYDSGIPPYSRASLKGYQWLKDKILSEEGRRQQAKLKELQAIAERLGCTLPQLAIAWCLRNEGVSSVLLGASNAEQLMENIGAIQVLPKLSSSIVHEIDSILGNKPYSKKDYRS
# test-method-notes: KvBeta positive modulators, primary screen, biochemical, NADPH fluorescence (AID 623);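 note: fluorescence intensity change per second fitted from 20 to 320 s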
# recorded-conditions: Recombinant KvBeta, NADPH fluorescence decrease slope, 10 min; at 10 µM; stronger effect = lower value
Active and inactive are the calls of the source.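 Rule for the calls: active = NADPH fluorescence slope more negative than the mean of all samples by about 3 SD, 99.7% confidence; inactive = the rest.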
parameter-measured: NADPH fluorescence slope

• N#Cc1c(N)nc(SCC(=O)NCCc2ccccc2)c(C#N)c1-c1cccs1 = -1.6e-05 (inactive)
• CC(C)OC(=O)c1nn2c(C(F)(F)F)cc(-c3ccc(Br)o3)nc2c1Br = -4.3e-06 (inactive)
• COc1ccc(CCCNC(=O)CC#N)cc1OC = -4.5e-05 (inactive)
• O=S(=O)(O)c1nc2ccccc2n1Cc1ccc(Cl)cc1Cl = -1.5e-05 (inactive)
• CCOC(=O)c1[nH]c2ccc(OC)cc2c1C = -2.9e-05 (inactive)
• Cc1cnc(NC(=O)C2=C(O)c3ccccc3S(=O)(=O)N2C)s1 = -1.4e-05 (inactive)
• Cc1cn([C@H]2C[C@H](N=[N+]=[N-])[C@@H](CO)O2)c(=O)[nH]c1=O = 3.5e-07 (inactive)
• COC(=O)[C@@H](N)Cc1ccc(O)cc1 = -7.7e-05 (inactive)
• COC(=O)CSc1nc2sc3c(c2c(=O)n1C1CCCCC1)CCN(C)C3 = 2e-05 (inactive)
• COCCCNC(=O)c1c(N)n(/N=C/c2cccs2)c2nc3ccccc3nc12 = -5.1e-05 (inactive)
• CC1(C(=O)CSc2nc3ccccc3s2)CCC(=O)O1 (stereo unspecified) = -0.000167 (inactive)
